system: Rhipicephalus sanguineus (Brown Dog Tick); test: whole plant or invertebrate; conditions: 200 ppm; timepoint 24 hrs

# compound, Contact SP Rhicicep PCT Mortality (%)
records = [
    ("CC(C)CNC(=O)c1ccc(CCOc2cc(F)cc(C(F)(F)F)c2)cn1 [Compound 278]", 100),
    ("Cc1cccc(OCc2ccc(C(=O)NCC(C)C)nc2)c1 [Compound 63]", 100),
    ("CC(C)CNC(=O)c1ccc(COCc2ccc(C(F)(F)F)c(F)c2)cn1 [Compound 283]", 100),
    ("CC(C)CNC(=O)c1ccc(CCOc2ccc(F)c(OC(F)(F)F)c2)cn1 [Compound 222]", 100),
    ("CSCCNC(=O)c1ccc(COc2cccc(-c3cccc(F)c3)c2)cn1 [Compound 174]", 100),
    ("O=C(NCC1CCOCC1)c1ccc(COc2ccc(C(F)(F)F)cc2F)cn1 [Compound 257]", 90),
    ("CC(C)CNC(=O)c1ccc(COCc2cccc(F)c2F)cn1 [Compound 290]", 80),
    ("CC(C)CNC(=O)c1ccc(COCc2ccc(C(F)(F)F)c(Cl)c2)cn1 [Compound 284]", 100),
    ("CC(C)(C)CNC(=O)c1ccc(COCc2ccc(Cl)cc2)cn1 [Compound 216]", 60),
]

----------
test system: Stomoxys calcitrans; assay: whole plant or invertebrate; settings: Stomoxys calcitrans; 5 μg/cm^2; 4 hrs; read-out: Contact SP Stable Fly PCT Mortality
In this section we review reported mortality at 5 µg/cm2 values for a set of compounds.
measurement_type: mortality at 5 µg/cm2 (%)

# line_notation, tested_on, measurement_type, uom, reported
data = [
    ("CCc1cccc(OCc2ccc(C(=O)NCC(C)C)nc2)c1", "Stomoxys calcitrans", "mortality at 5 µg/cm2", "%", 60),
    ("O=C(NCC1CC1)c1ccc(COc2ccc(OC(F)(F)F)cc2)cn1", "Stomoxys calcitrans", "mortality at 5 µg/cm2", "%", 80),
    ("CC(C)CNC(=O)c1ccc(COc2cccc(C(F)(F)F)c2)cn1", "Stomoxys calcitrans", "mortality at 5 µg/cm2", "%", 70),
    ("CCc1cccc(OCc2ccc(C(=O)NCC(OC)OC)nc2)c1", "Stomoxys calcitrans", "mortality at 5 µg/cm2", "%", 50),
    ("CC(C)CNC(=O)c1ccc(CCOc2cccc(OC(F)(F)F)c2)cn1", "Stomoxys calcitrans", "mortality at 5 µg/cm2", "%", 50),
    ("N#CCCNC(=O)c1ccc(COc2cc(F)cc(Br)c2)cn1", "Stomoxys calcitrans", "mortality at 5 µg/cm2", "%", 0),
]

----------
tested on: Rhipicephalus sanguineus (Brown Dog Tick); assay: whole plant or invertebrate; details: 200 ppm; timepoint 4 hrs

# line_notation, Contact SP Rhicicep PCT Mortality (%)
data = [
    ("C=C(C)CNC(=O)c1ccc(COc2cccc(OC)c2)cn1", 70),
    ("CCNC(=O)c1ccc(COc2ccc(OC(F)(F)F)cc2)cn1", 80),
    ("CC(C)CNC(=O)c1ccc(CCOc2cc(F)cc(C(F)(F)F)c2)cn1", 70),
    ("CCCNC(=O)c1ccc(COc2cccc(-c3cccc(F)c3)c2)cn1", 80),
    ("CCCNC(=O)c1ccc(COc2cc(F)cc(Br)c2)cn1", 60),
    ("O=C(NC1CCC1)c1ccc(COc2cc(F)cc(Br)c2)cn1", 0),
    ("CSCCNC(=O)c1ccc(COc2cccc(-c3cccc(F)c3)c2)cn1", 90),
    ("O=C(NCC1CC1)c1ccc(COc2cccc(-c3cccc(F)c3)c2)cn1", 90),
    ("O=C(NCC1CCOCC1)c1ccc(COc2ccc(C(F)(F)F)cc2Br)cn1", 90),
]
